# Tested on: Saccharomyces cerevisiae
# assayName: protein stability index of tFT-peptide fusion (C-terminal peptide) (PSI (0-1 scale)); higher = more stable (slower turnover)
# studyConditions: genetic background: das1 deletion; temperature: 37 C
Given measured protein stability index, output t if it is greater than or equal to 0.6 and f if not.

residueString | labelValue
MALAVRVVICGA | f
CFFPFLCFVVGA | f
NAGSHHAAVKLG | t
HRLQFKGYPICA | f
DYARAWRTEVVC | f
AIDLCIAVVGMV | f
DTHSRARAVLIA | t
VNTLCCVFRCNL | t
LLFSVLLLGVGF | f
GRWAFFTWLRWS | t
ISSAGHNIRFLA | t
SLVLLVASVTGS | f
SYFSVTLFFTVI | f
MALAVRVVFCGA | f
VSFEFSVLWTVF | f
YYVIFHLFSFLI | f
IIGCIAICLMVN | f
YVSSCLLWLCFV | f
RRQQNHRQLCAT | t
PLFLLTFAITLV | f
EKTKRGLIQRVV | t
CSLFYVFYRRLL | t
FVGVLVLCVCRC | f
HRPRPLLKLLAS | t
SQIALIQYFHIL | t
WDPKISVFVLID | f
LVFLYFHFCCGF | f
RQILYYRERFIP | t
RWAAAVPLLVVG | f
FCSVFAHFLLCH | f
LFFFLVWSLSVF | f
GLNKGKYIKLYT | t
INHVIHAKLRFS | t
YIILLSRKCAFC | t
GSDGVGGTVLYA | t
RLFVRIQLSLLF | f
SLSFLRPLLLIF | f
ARFCFRIFSFAS | f
VLVSVSLRVCMV | f
YCDPSLIWLYLM | t
PLCLFPPLLVFL | f
PLPSRLRRFVPV | t
SSFDFVVSLCIY | f
LFDYEAGEVMGG | t
HVCKLAMFQWYF | t
WFFLFGFVFFFR | f
WGAHRVRVSRIL | t
WFAHGLRHFRIL | t
VFLRCRSLSMRV | f
GTIFLIRVLLFG | f
SLTHTPLGVTRT | t
VYEVELSVRVTV | f
WFSAGSCRWVLC | t
LPCPPSPASLPR | t
RLSTTTTKQFIH | t
AGCFFVVLCGFF | f
ALWFVLISILCL | f
CMLPWPILLCPF | f
FFLLFCASFLRC | f
RIFWMFFSQHIG | t
SQVILFFLSLCR | t
TVWRRIRHACAH | t
QIGSMLGVQGVG | f
QWRSWSFATLVT | f
IFRVTGFPIYIF | f
ATLWVWCFSSHV | t
GNRDLVNTSVEG | t
VVVYWGSLKRVC | t
LCLRCQCIGTLS | f
APLPPPPASVPP | t
LLQCRTGLASGR | t
EFVACFRLLVHG | f
SWVSVLSELLAC | f
TGGGGRVSLGVG | f
GFFCFLYFVVMF | f
VVMASSIIVVAG | f

----------
# Test system: Saccharomyces cerevisiae
# assayName: protein stability index of tFT-peptide fusion (C-terminal peptide) (PSI (0-1 scale)); higher = more stable (slower turnover)
# studyConditions: genetic background: wild type; temperature: 30 C

residueString | testedSystem | protein stability index
SIFIASLLLAIV [FLO10 C-terminal 12 aa] | Saccharomyces cerevisiae | 0.237
KKKKNASTCTIL [RSR1 C-terminal 12 aa] | Saccharomyces cerevisiae | 0.711
DTSSTVEKKQKT [CCL1 C-terminal 12 aa] | Saccharomyces cerevisiae | 0.692
HSITEGSYIYIK [YOR062C C-terminal 12 aa] | Saccharomyces cerevisiae | 0.676
LLLQKSGTYLLL [ARV1 C-terminal 12 aa] | Saccharomyces cerevisiae | 0.638
FGDCHLENSHLH [SPO75 C-terminal 12 aa] | Saccharomyces cerevisiae | 0.719

----------
# System: Saccharomyces cerevisiae
# assayName: protein stability index of tFT-peptide fusion (C-terminal peptide) (PSI (0-1 scale)); higher = more stable (slower turnover)
# studyConditions: genetic background: wild type; temperature: 30 C
Entry flag: TRUE if protein stability index reaches 0.7; FALSE if it does not.

residueString | testedSystem | labelValue
SNNPKLHHAKEA [MEP3 C-terminal 12 aa] | Saccharomyces cerevisiae | FALSE
QYMTSGYASNWN [YAR061W C-terminal 12 aa] | Saccharomyces cerevisiae | TRUE
CNVCLFPDMYAR [CTF19 C-terminal 12 aa] | Saccharomyces cerevisiae | TRUE
FSIVALEVWRVG [OXR1 C-terminal 12 aa] | Saccharomyces cerevisiae | FALSE
KALELILNILEH [SNU56 C-terminal 12 aa] | Saccharomyces cerevisiae | FALSE
RTTFRTLSSYGK [YHL041W C-terminal 12 aa] | Saccharomyces cerevisiae | FALSE
IIRPLVLKNFII [YDR371C-A C-terminal 12 aa] | Saccharomyces cerevisiae | FALSE
TSIEEDLASKSE [RTA1 C-terminal 12 aa] | Saccharomyces cerevisiae | FALSE

----------
# Tested on: Saccharomyces cerevisiae
# assayName: protein stability index of tFT-peptide fusion (C-terminal peptide) (PSI (0-1 scale)); higher = more stable (slower turnover)
# studyConditions: genetic background: wild type; temperature: 30 C
Classification scheme (protein stability index): lower level: < 0.2; middle level: ≥ 0.2 and < 0.4; upper level: ≥ 0.4

residueString | testedSystem | labelValue
VLYSRFPPPLIA | Saccharomyces cerevisiae | upper level
ACVRFPLVLVVF | Saccharomyces cerevisiae | lower level
ALFVGVVLLVCW | Saccharomyces cerevisiae | lower level
WFGCSTVWVRVQ | Saccharomyces cerevisiae | lower level
IGILVTAVPVFD | Saccharomyces cerevisiae | middle level
VQLFCLRREMII | Saccharomyces cerevisiae | middle level
FSFSFYFALASF | Saccharomyces cerevisiae | upper level
PPCSLLPPPPAP | Saccharomyces cerevisiae | upper level
CVIVCVLVWGRA | Saccharomyces cerevisiae | lower level
RFFKMREAIRIS | Saccharomyces cerevisiae | middle level
GGFHWCPSASRG | Saccharomyces cerevisiae | upper level
KRLALVSCSICG | Saccharomyces cerevisiae | middle level
VGTGVGEGGGVV | Saccharomyces cerevisiae | upper level
SRSFWHAIVFLA | Saccharomyces cerevisiae | lower level
VILYCSNVAVCS | Saccharomyces cerevisiae | middle level
LVFPPVPSLVLC | Saccharomyces cerevisiae | middle level
LVRFYGPLPPFP | Saccharomyces cerevisiae | upper level
PLLLLLPSLLLV | Saccharomyces cerevisiae | lower level

----------
Known protein stability index of a selection of sequences
# Test system: Saccharomyces cerevisiae
# assayName: protein stability index of tFT-peptide fusion (C-terminal peptide) (PSI (0-1 scale)); higher = more stable (slower turnover)
# studyConditions: genetic background: wild type; temperature: 30 C
endpoint: protein stability index

residueString | numericResult
GLEIGMSQVSMG | 0.645
YGAVRFTLIPLQ | 0.639
LWCGGWVCVLGW | 0.532
GVDCPGPKRDRK | 0.626
SCSLPCPRLPSD | 0.719
SSPHRFLCLPPP | 0.639
LGRSGCRGGYVG | 0.622
SASPEGTQRSPW | 0.761
PFIPLSMLSPLV | 0.68
IGRRGINGLWGG | 0.627
AYVHGSINPMQP | 0.691
GWDRNVGWVVGR | 0.735
LWRFFFVAFVGI | 0.421
PPVKQKEKGTAT | 0.701
ACGLVSTSWYGA | 0.713
PPPSPNPRENPK | 0.671
PSPPYLIPHALS | 0.676
LRKDVRTRSNTK | 0.806
LLLSPSRLPPAD | 0.676
SVPSAWCWVSSS | 0.6
PSPAPTPPTPHS | 0.721
PLPCSSLLVPLP | 0.627
VGVGGVGRRAKI | 0.687
PSCALAFRSEPH | 0.741
PPPFPPPTLPPP | 0.736
VSFAGSPVPSSS | 0.716
RYRSQNNKKLEE | 0.658
RDELRTSAGKGS | 0.659
LGRGRGGPLSGG | 0.701
PLPLASVTPPYL | 0.669
WGRRWRCAGRGG | 0.656
VVLRRTLGAFLF | 0.661
PPTPKHTPHDTT | 0.694
VVCPCIIYVPGV | 0.466
GGVSVVTRVAPR | 0.658
RAYRSTCRCSER | 0.669
RQCGKGGKEGAA | 0.653
SPPPLCCPPLAP | 0.728
NASASTLPFPLD | 0.71
GCEGGGRVGSWT | 0.742
LAGVVWVVWCVG | 0.314

----------
# Tested on: Saccharomyces cerevisiae
# assayName: protein stability index of tFT-peptide fusion (C-terminal peptide) (PSI (0-1 scale)); higher = more stable (slower turnover)
# studyConditions: genetic background: das1 deletion; temperature: 30 C
Reported protein stability index values follow for various sequences

residueString | testedSystem | protein stability index
FSSEQGNPKEEK [FMP10 C-terminal 12 aa] | Saccharomyces cerevisiae | 0.702
KKRKFGKVRIKN [NEJ1 C-terminal 12 aa] | Saccharomyces cerevisiae | 0.706
HFCYIGRITTHT [YDL114W-A C-terminal 12 aa] | Saccharomyces cerevisiae | 0.681
EVTAKTSLVSPK [ROX1 C-terminal 12 aa] | Saccharomyces cerevisiae | 0.702
KWIEYVEEFQNW [FRE5 C-terminal 12 aa] | Saccharomyces cerevisiae | 0.717
INEDNKAYSLDY [RIM4 C-terminal 12 aa] | Saccharomyces cerevisiae | 0.699
